assayComment: binders from COS7 lysate, DM2A8 probe, primary screen, torsin A project, cell lysate, small-molecule microarray, fluorescence 635/667 (AID 1065)
conditionDescription: higher = more signal, COS7 lysate expressing mutant human TOR1A
Consider the following compounds and their measured composite z-score readings.
Lab note: write the figure by itself, no unit.

# example entries with known answers
compound	reportedValue
COCCOC(=O)N1C(=O)[C@@]2(c3cc(C#CCCO)ccc31)[C@H](C(=O)Nc1nc3ccccc3s1)[C@H]1C(=O)O[C@H](c3ccccc3)[C@H](c3ccccc3)N1[C@@H]2c1ccc(OCCO)cc1	0.787
C=C(C)C1C(=C)CN([C@H](CO)c2ccccc2)C1=O (stereo partly drawn)	-0.605
CCOC(=O)C1=CCC(c2ccc(C)cc2)N(S(=O)(=O)c2ccc(C)cc2)C1 (stereo not drawn)	-0.0577

Give the reported value of composite z-score for this record: `COC(=O)[C@@]1(Cc2ccc(OC)cc2)[C@H]2c3cc(C(=O)N4CCCC4)n(Cc4ccccc4)c3C[C@H]2CN1C(=O)c1ccccc1`
0.0681

Give the reported value of composite z-score for this record: `CC(C)(C)OC(=O)CC[C@]1(C(=O)O)N=C(c2ccc(OCCCO)cc2)O[C@H]1c1ccccc1N=[N+]=[N-]`
0.236

Give the reported value of composite z-score for this record: `O=C(NCC(F)(F)F)[C@@H]1c2ccccc2C(=O)N(C2CCCCC2)[C@H]1c1ccc(CO)cc1`
-0.527

Give the reported value of composite z-score for this record: `C=C(CCCC)C(=O)CC[C@@H](OC(=O)c1cccnc1)c1ccc(CO)o1`
0.0802

Give the reported value of composite z-score for this record: `COCCCNC(=O)[C@@]1(Cc2ccccc2N=[N+]=[N-])N=C(c2ccc(OCCCO)cc2)O[C@H]1c1ccccc1N=[N+]=[N-]`
0.81

Recorded values, source PubChem BioAssay.
